# targetOfAssay: erythrocyte KCa3.1 channels (Homo sapiens (Human))
# testName: Erythrocyte KCa3.1 assay
# assayConditions: human erythrocytes, A23187-activated, 37° C.; read-out: RBC K (in vitro) Human IC50
reportedEndpoint: IC50 (nM)

Reference set (3 entries):
> print(dat)
                                   compound  quantitativereadout
1  COC(=O)N(C[C@@H]1CCCN1)C1(c2ccc(F)c(OC(F)(F)F)c2)CC1 [[28]]                   87
2  CS(=O)(=O)N(C[C@H]1CCCN1)C1(c2ccc(F)c(C(F)(F)F)c2)CC1 [[41]]                  380
3  CCOC(=O)N(C[C@@H]1CCCN1)C1(c2ccc(F)c(C(F)(F)F)c2)CC1 [[34]]                   52

I: COC(=O)N1CC(N(C(=O)OC)C2(c3ccc(F)c(C(F)(F)F)c3)CC2)C1 [[4]]
II: O=C(OC1CC1)N(C[C@@H]1CCCN1)C1(c2ccc(F)c(C(F)(F)F)c2)CC1 [[45]]
III: COC(=O)N(C[C@H]1COCCN1C)C1(c2ccc(F)c(C(F)(F)F)c2)CC1 [[43]]
## Task Order field: IC50 | Direction: descending (largest first) Give me the labels in the order the question wants.
## Result III, II, I

---

# targetOfAssay: erythrocyte KCa3.1 channels (Homo sapiens (Human), UniProt O15554)
# testName: Erythrocyte KCa3.1 assay
# assayConditions: human erythrocytes, A23187-activated, 37° C.; read-out: RBC K (in vitro) Human IC50
reportedEndpoint: IC50 (nM)

> print(dat)
                                   compound                             targetofassay  quantitativereadout
1  CC(C)(N)CNC1(c2ccc(F)c(C(F)(F)F)c2)CC1 [[25]]  erythrocyte KCa3.1 channels (Homo sapiens (Human), UniProt O15554)                  180
2  COC(=O)N(CC(C)(C)N)C1(c2cccc(C(F)(F)F)c2)CC1 [[15]]  erythrocyte KCa3.1 channels (Homo sapiens (Human), UniProt O15554)                  140

a: CN1CCC1CN(CC(C)(C)O)C1(c2ccc(F)c(C(F)(F)F)c2)CC1 (stereo not drawn) [[16]]
b: NC1(CNC2(c3ccc(F)c(C(F)(F)F)c3)CC2)CC1 [[47]]
c: COC(=O)N(C[C@H]1CCCN1C)C1(c2ccc(F)c(C(F)(F)F)c2)CC1 [[31]]
## Task Please list these compounds in decreasing order of IC50. In your reply, arrange the labels in the requested order.
## Result a, b, c

A: COC(=O)N(C[C@@H]1COCCN1)C1(c2ccc(F)c(C(F)(F)F)c2)CC1 [[39]]
B: COC(=O)N(C[C@@H]1COCCN1C)C1(c2ccc(F)c(C(F)(F)F)c2)CC1 [[40]]
## Task Kindly compare A with B and tell me which has the lower IC50 figure. Pick one; state its label.
## Result B
(B: 270 nM, A: 420 nM)

---

# testName: Solubility of compounds in 50 mM phosphate buffer pH 7.4 by HPLC
# Type: physicochemical
# assayConditions: 50 mM potassium phosphate buffer pH 7.40, 16 hr at ~25° C., 1600 μM incubation concentration
reportedEndpoint: Measured Solubility in pH 7.4 phosphate buffer (μM) (rounded)

> print(dat)
                                   compound  quantitativereadout
1  COC(=O)N(C[C@H]1COCCN1)C1(c2ccc(F)c(C(F)(F)F)c2)CC1 [[42]]                 1500
2  COC(=O)N(CC(C)(C)N)C1(c2cc(C(F)(F)F)c(F)cn2)CC1 [[17]]                 1500
3  COC(=O)N(CC1(N)CC1)C1(c2ccc(F)c(C(F)(F)F)c2)CC1 [[3]]                 1600

A: CS(=O)(=O)N(C[C@@H]1CCCN1)C1(c2ccc(F)c(C(F)(F)F)c2)CC1 [[36]]
B: COC(=O)N(CCN(C)C)C1(c2ccc(F)c(C(F)(F)F)c2)CC1 [[1]]
## Task Decide: A or B , by lowest recorded Measured Solubility in pH 7.4 phosphate buffer (μM) (rounded). Pick one; state its label.
## Result A
